assay: soluble on expression in E. coli; label from the status in PepcDB or PDB records
MEASURED_PROPERTY: soluble on expression in E. coli

MGSDKIHHHHHHMSDRLPPLTALRAFDAAARHMSFAKAADELSVTPAALSFQIKSLEEHLGAPLFRRLNRAVELTEAGAALAPGVDEGFQALSAAWRQARRVLDTTSLTVTAGPALTAKWLAPRLYEFARSHPDIDLRLSAGLKMVDLRRDHVDVAIRFGYSVDDYLVAQAARPEWLTPVMTPELCAKYPTPQSLRDAPLIYDDSIGFLSPSCDWPTWFRAMGLEFTPGHGTHFSHADHAIDAACAGLGVALGRRPMIIKDVQEGRLVAPFKVAIETDAKFHFLCLPSSQDRPQIRAFREWFFSEIEKTAHMWDDFTIIPVKDL ... not soluble
MGSDKIHHHHHHMNFPRPLVPATLVQRYKRFLFDAILADGTAITGSCPNTGSMRGLTIPGSPIWLSEHDSPTRKYRHMLEIVEADGTLVGINTGLPNRIAEEAIMAGQVGNLHTYGTLRREQRYGRNSRIDILLSDAEKGLAYVEVKNVHFSRVRGLAEFPDSPTQRGAKHLEELGDMVEAGHRAIMLYLIQRGDCSRFRICRELDPVYARAFERASARGVEAYAVKCAVSPGQIVAAGPIVVDEPVPAVL ... not soluble
MYDFAIIGSGVAGATLAKELRYRYKVAVIEKGKKPSYASEGKNVEINYVYGLGGSGVYSLGNAIKTEIKGYKIDKDIYKEIWEELKIKAPKDDFLNDIDKAFIELGFEKMEKFIDFDRCNKCGECARKICKAKWTPLNYLKESNANIITEFNIKAINYSNYYEILDDKGRKIKAKNLIISAGGINSPRILKKMIDDENIGKNLFIDTFVTVGGILEDSYLNKDISMLVYKKYKNFMLATHYSKLLINEIKKDYKDVKEKDIVGIMIKIKDENNGVVLDNDVKKEITKEDFKTLARGICKATKYLYKLGVDDIYTTIPRGSHPGGSLSLVVDEFEVREGLYVCDASLFKEALGVPPIVSIIALSKKFVREILLEHHHHHH ... not soluble
MTVPTYDKFIEPVLRYLATKPEGAAARDVHEAAADALGLDDSQRAKVITSGQLVYKNRAGWAHDRLKRAGLSQSLSRGKWCLTPAGFDWVASHPQPMTEQETNHLAFAFVNVKLKSRPDAVDLDPKADSPDHEELAKSSPDDRLDQALKELRDAVADEVLENLLQVSPSRFEVIVLDVLHRLGYGGHRDDLQRVGGTGDGGIDGVISLDKLGLEKVYVQAKRWQNTVGRPELQAFYGALAGQKAKRGVFITTSGFTSQARDFAQSVEGMVLVDGERLVHLMIENEVGVSSRLLKVPKLDMDYFE ... soluble
MIPMNVTFEHDFQTMRESFFENAQEAFAILDKDLNFIDINKSFTESLKTGRDKLIGKNIIEFNSSIKNTERFRLYQKVLQTGESIILDDIRLHPNLGSYTIRVSCFKVGEGIGLAILNITDLRDAIDDLETFIYKCSHDMRTPVSNIYGLIQLALEDTKDPHTVEFLNMIKHQTDRLDHIIHQLANTSRLMHDNKIIYLVDLKTVVSDVIDSFSKIPDFEAIKFTVTSSSKEKFFSDKSLLICILENIIDNAIKYRNHDIQSLIDINMSDEKSGVRITIKDNGIGIDDDIQKNVFKMFYRGTNKSSGSGLGLYTVKHFIKKLKGEISLTSEKNTGTTFSFYIPNVNTDK ... not soluble
GPGSMEEFYGMEVFAGKTAKPNISADRVLHVTQVALPPNASHAITLLVKTEGKSFVLATLDPQQALFHVSVDMLFSGKQKLAFTCEGATGAVHIIGYTQLAEEEEDAIDDEDDDDMMDDEDVA ... soluble
MGSSHHHHHHGGTGENLYFQGGSGLRRTEIALKKGWTHNPGHTRRGGKNLAWRPKISDAKLSQFVPLALVHPRRHPNNWQERQFNALGYTKWPKDIGFYNAGDNFEVTPEAAWRLYVHARDEPYWGKLHCEKTIITLLPVVEKAPKENMERVLDVFRHYLKRYGADHYIYNAVMQAAAFAKNYEQAEQLFKEMETLGLEPNAQSYVNMMLAAKLCGLPPEKSEAYFKRAVKDGAMQSVMRMDTEFRMWMDQLDRLGSFTASSGYLSVNEEGAKPMPRDMWAIWGWHRSESKFISRRDLIMQQVRARVHSGKELVGTVYTKTRRQPWAKFNGMLRHDYNGPSYRAPTIFPDAPEYTNEAGHKAF ... soluble
MALKDLFSGFFVVEEEDDELEAPPEENEQQERQQPKQQAQSQNQFTEQPRNVNSERPRSIQSVPKKQSTRLQQSSGERKYQMNNTTSKNNARNVVNMNNQEQENYDFTQESSKMCLFEPRVFSDTQDIADELKNRRATLVNLQRIDKVSAKRIIDFLSGTVYAIGGDIQRVGSDIFLCTPDNVEVAGSITDQIENMEYQGELEHHHHHH ... not soluble
SLILHAQAKHGKPGLPWLVFLHGFSGDCHEWQEVGEAFADYSRLYVDLPGHGGSAAISVDGFDDVTDLLRKTLVSYNILDFWLVGYSLGGRVAMMAACQGLAGLCGVIVEGGHPGLQNAEQRAERQRSDRQWVQRFLTEPLTAVFADWYQQPVFASLNDDQRRELVALRSNNNGATLAAMLEATSLAVQPDLRANLSARTFAFYYLCGERDSKFRALAAELAADCHVIPRAGHNAHRENPAGVIASLAQILRF ... soluble
MGSDKIHHHHHHMADKPFRLVTRSDFDGLVCATLLKELALIDEITFVHPKDMQDGQIPVTERDITTNLPYVEGVHLCFDHHLSETIRVGKKANHIIDPLAPSAARVVYNYFGGKARFPRIPDDMMDAVDKGDSAQYNMEEVLHPGGWELLNFLMDARTGLGRFREFRIPNYQLMMELIDYCRDHAIEDILDLPDVSERVDLYREHEPRFKEQLKRCSTVHGNLVVLDLRDEDPIWAGNRFMIYALYPETNISIHVLWGRERRNTVFAVGKSIFNRSSNTNIGELMLGYGGGGHHAAGTCQVDNAQAADVLARLIARITEDG ... not soluble
